System: Escherichia coli
Experiment: Antimicrobial activity against Escherichia coli C600 2878 transconjugate expressing beta-lactamase VIM-19 by microdilution method
Type: functional
Values of MIC strictly less than 100 µg/mL map to label 1, and values of at least 100 µg/mL map to label 0.

Below, 8 compounds whose answers are already recorded.
Compound	Class Name
C[C@@H](O)[C@H]1C(=O)N2C(C(=O)O)=C(SCCNC=N)C[C@H]12 [IMIPENEM ANHYDROUS]	label 1
CO/N=C(\C(=O)N[C@@H]1C(=O)N2C(C(=O)O)=C(COC(C)=O)CS[C@H]12)c1csc(N)n1 [CEFOTAXIME]	label 1
CC(C)(O/N=C(\C(=O)N[C@@H]1C(=O)N2C(C(=O)[O-])=C(C[n+]3ccccc3)CS[C@H]12)c1csc(N)n1)C(=O)O [CEFTAZIDIME]	label 1
C[C@@H](O)[C@H]1C(=O)N2C(C(=O)O)=C(S[C@@H]3CN[C@H](C(=O)Nc4cccc(C(=O)O)c4)C3)[C@H](C)[C@H]12	label 1
CCN1CCN(C(=O)N[C@@H](C(=O)N[C@@H]2C(=O)N3[C@@H]2SC(C)(C)[C@@H]3C(=O)O)c2ccccc2)C(=O)C1=O [PIPERACILLIN]	label 0
C[C@@H](O)[C@H]1C(=O)N2C(C(=O)O)=C(S[C@@H]3CN[C@H](C(=O)N(C)C)C3)[C@H](C)[C@H]12 [MEROPENEM]	label 1
CC1(C)S[C@@H]2[C@H](NC(=O)[C@H](C(=O)O)c3ccsc3)C(=O)N2[C@H]1C(=O)O [TICARCILLIN]	label 0
CO[C@@]1(NC(=O)Cc2cccs2)C(=O)N2C(C(=O)O)=C(COC(N)=O)CS[C@@H]21 [CEFOXITIN]	label 0

Query: Would you kindly verify if MIC of CO/N=C(\C(=O)N[C@@H]1C(=O)N2C(C(=O)O)=C(COC(N)=O)CS[C@H]12)c1ccco1 [CEFUROXIME] is strictly less than 100 µg/mL?
Response: label 0

Query: Consider the compound CC1(C)S[C@@H]2[C@H](NC(=O)[C@H](N)c3ccc(O)cc3)C(=O)N2[C@H]1C(=O)O [AMOXICILLIN] . Is its MIC strictly less than 100 µg/mL?
Response: label 0

Query: In the record for CC(=O)OCC1=C(C(=O)O)N2C(=O)[C@@H](NC(=O)Cc3cccs3)[C@H]2SC1 [CEPHALOTHIN] , is MIC less than 100 µg/mL?
Response: label 0

###

System: Escherichia coli
Experiment: Antimicrobial activity against Escherichia coli DH5alpha harbouring plasmid BK-VIM-19 expressing beta-lactamase VIM-19 by microdilution method in presence of 0.4 mM EDTA
Format: functional
Please provide measured MIC for the entries that follow.
One number for each entry, in µg/mL.

Compound	Experimental Endpoint	Uom	Numeric Value
CO/N=C(\C(=O)N[C@@H]1C(=O)N2C(C(=O)O)=C(COC(C)=O)CS[C@H]12)c1csc(N)n1 [CEFOTAXIME]	MIC	µg/mL	0.06

Please look at the following compound next.
Query: Form entry - test system: Escherichia coli; read-out: MIC; compound: CC(C)(O/N=C(\C(=O)N[C@@H]1C(=O)N2C(C(=O)[O-])=C(C[n+]3ccccc3)CS[C@H]12)c1csc(N)n1)C(=O)O [CEFTAZIDIME]
Response: 0.12
